Taken from patent US20050267156A1.

I'd be grateful if you could share measured fold resistance Strain B for these entries.
system: mutant HIV strain B; experiment: microbe, parasite or virus in culture; format: cell-based; conditions: FR=EC50 (mutant strain)/EC50 (HIV-1 strain LAI)
Numbers only.

CNc1nc2ccc(S(=O)(=O)N(CC(C)C)C[C@@H](O)[C@H](Cc3ccccc3)NC(=O)COc3c(C)cccc3C)cc2s1 [Compound 15] : 2.6
Cc1cc(CN)cc(C)c1OCC(=O)N[C@@H](Cc1ccccc1)[C@H](O)CN(CC(C)C)S(=O)(=O)c1ccc2nc(N)sc2c1 [Compound 17] : 0.9

Lab note: each compound below needs its fold resistance Strain B filled in.
1. CNc1nc2ccc(S(=O)(=O)N(CC(C)C)C[C@@H](O)[C@H](Cc3ccccc3)NC(=O)OCc3cnco3)cc2s1 [Compound 28]
2. CNc1nc2ccc(S(=O)(=O)N(CC(C)C)C[C@@H](O)[C@H](Cc3ccccc3)NC(=O)O[C@H]3CCOC3)cc2s1.O=C(O)C(F)(F)F [Compound 22]

Solution:
2.2
10.2

###

Test: Pharmacokinetics in dogs
Format: in vivo
Settings: dog, blood, po, 10 mpk, or, PEG400, results normalized to 10 mpk, read-out: Cmax
Experimental: The pharmacokinetic properties of some compounds of formula (I) were tested on rats and dogs. The compounds were evaluated in Whistar rats, source Iffa Credo, weighing approximately 350 g. Before dosing the animals were fasted overnight (approximately 12 h fasting period). The compounds were dissolved in DMSO or PEG 400. […] The amount of the compound in the biological sample was determined using LC-MS. […]
endpoint.name: Cmax

Exercise: Would you mind telling me what Cmax value was observed for CNc1nc2ccc(S(=O)(=O)N(CC(C)C)C[C@@H](O)[C@H](Cc3ccccc3)NC(=O)OCc3cncs3)cc2s1 [Compound 18] ?
Solution: 42 ng/mL

###

I'd be grateful if you could share measured Cmax for these entries.
assay: Pharmacokinetics in rats; assay type: in vivo, Whistar rats; details: Whistar, rat, blood, po, 10 mpk, or, PEG400, results normalized to 10 mpk, read-out: Cmax
Answers are plain numbers, in µg/mL.

Lab note: each molecule below needs its Cmax filled in.
1. CNc1nc2ccc(S(=O)(=O)N(CC(C)C)C[C@@H](O)[C@H](Cc3ccccc3)NC(=O)OC3COC4OCCC34)cc2s1 (stereo partly shown)
2. CNc1nc2ccc(S(=O)(=O)N(CC(C)C)C[C@@H](O)[C@H](Cc3ccccc3)NC(=O)OCc3cncs3)cc2s1
3. CNc1nc2ccc(S(=O)(=O)N(CC(C)C)C[C@@H](O)[C@H](Cc3ccccc3)NC(=O)OCc3cnco3)cc2s1

Solution:
1. 0.225
2. 0.668
3. 0.43

Exercise: Would you mind telling me what Cmax value was observed for CNc1nc2ccc(S(=O)(=O)N(CC(C)C)C[C@@H](O)[C@H](Cc3ccccc3)NC(=O)COc3c(C)cccc3C)cc2s1 ?
Solution: 0.01

###

I'd be grateful if you could share measured EC50 for these entries.
test system: HIV-1 strain LAI; experiment: Cellular anti-HIV assay (MT4/MTT), wild type; assay type: cell-based; conditions: Human immunodeficiency virus 1; wild type HIV-1 strain LAI, MT4 cells; read-out: WT (pEC50) (converted)
Numbers only, in nM.

Study these solved cases before continuing.
CNc1nc2ccc(S(=O)(=O)N(CC(C)C)C[C@@H](O)[C@H](Cc3ccccc3)NC(=O)COc3c(C)cc(N)cc3C)cc2s1 [Compound 26] : 2.69
CC(C)CN(C[C@@H](O)[C@H](Cc1ccccc1)NC(=O)OC1COC2OCCC12)S(=O)(=O)c1ccc2nc(N(C)C)sc2c1 (stereo partly drawn) [Compound 6] : 3.98
Cc1ccccc1C(=O)N[C@@H](Cc1ccccc1)[C@H](O)CN(CC(C)C)S(=O)(=O)c1ccc2nc(N)sc2c1 [Compound 14] : 3.8
CNc1nc2ccc(S(=O)(=O)N(CC(C)C)C[C@@H](O)[C@H](Cc3ccccc3)NC(=O)COc3c(C)cccc3C)cc2s1 [Compound 15] : 11.2
CC(C)CN(C[C@@H](O)[C@H](Cc1ccccc1)NC(=O)OC1CCOC1)S(=O)(=O)c1ccc2nc(N)sc2c1 (stereo partly drawn) [Compound 12] : 4.27

Exercise: Would you mind telling me what EC50 value was observed for CC(C)CN(C[C@@H](O)[C@H](Cc1ccccc1)NC(=O)OCc1ccccc1)S(=O)(=O)c1ccc2nc(N)sc2c1 [Compound 7] ?
Solution: 5.89

###

assay: Pharmacokinetics in rats; type: in vivo, Whistar rats; conditions: Whistar, rat, blood, ip, 10 mpk, ip, DMSO, results normalized to 10 mpk, read-out: Cmax
I'd be grateful if you could share measured Cmax for these entries.
Numbers only, in ng/mL.

Study these solved cases before continuing.
CNc1nc2ccc(S(=O)(=O)N(CC(C)C)C[C@@H](O)[C@H](Cc3ccccc3)NC(=O)COc3c(C)cc(CN)cc3C)cc2s1 : 453
CNc1nc2ccc(S(=O)(=O)N(CC(C)C)C[C@@H](O)[C@H](Cc3ccccc3)NC(=O)OC3COC4OCCC34)cc2s1 (some centres unmarked) : 1670
CNc1nc2ccc(S(=O)(=O)N(CC(C)C)C[C@@H](O)[C@H](Cc3ccccc3)NC(=O)COc3c(C)cccc3C)cc2s1 : 86

Lab note: each compound below needs its Cmax filled in.
1. CNc1nc2ccc(S(=O)(=O)N(CC(C)C)C[C@@H](O)[C@H](Cc3ccccc3)NC(=O)OCc3cnco3)cc2s1
2. CNc1nc2ccc(S(=O)(=O)N(CC(C)C)C[C@@H](O)[C@H](Cc3ccccc3)NC(=O)OCc3cncs3)cc2s1

Solution:
1. 1000
2. 1140

###

assay: Toxicity on mock-infected cells (MTT); format: cell-based; settings: human
endpoint.name: CC50 at 5 days

Study these solved cases before continuing.
CNc1nc2ccc(S(=O)(=O)N(CC(C)C)C[C@@H](O)[C@H](Cc3ccccc3)NC(=O)OC3COC4OCCC34)cc2s1 (stereo partly drawn) : > 10 µM
CC(C)CN(C[C@@H](O)[C@H](Cc1ccccc1)NC(=O)OC1COC2OCCC12)S(=O)(=O)c1ccc2nc(N(C)C)sc2c1 (stereo partly drawn) : > 100 µM

Continue with the compound presented below.
Exercise: Would you mind telling me what CC50 at 5 days value was observed for Cc1cccc(C)c1OCC(=O)N[C@@H](Cc1ccccc1)[C@H](O)CN(CC(C)C)S(=O)(=O)c1ccc2nc(N)sc2c1 ?
Solution: > 10 µM

###

system: mutant HIV strain B; assay: microbe, parasite or virus in culture; assay type: cell-based; settings: FR=EC50 (mutant strain)/EC50 (HIV-1 strain LAI)
Field 'label' (enum: 1.0 / 0.0). Set to 1.0 when fold resistance Strain B is strictly under 2; else 0.0.

Answered cases to consult:
CC(C)CN(C[C@@H](O)[C@H](Cc1ccccc1)NC(=O)OCc1cccnc1)S(=O)(=O)c1ccc2nc(N)sc2c1 : 1.0
CNc1nc2ccc(S(=O)(=O)N(CC(C)C)C[C@@H](O)[C@H](Cc3ccccc3)NC(=O)OC3COC4OCCC34)cc2s1 (stereo partly shown) : 0.0
Cc1c(O)cccc1C(=O)N[C@@H](Cc1ccccc1)[C@H](O)CN(CC(C)C)S(=O)(=O)c1ccc2nc(N)sc2c1 : 1.0
CNc1nc2ccc(S(=O)(=O)N(CC(C)C)C[C@@H](O)[C@H](Cc3ccccc3)NC(=O)c3ccc(Br)cc3C)cc2s1 : 1.0
CNc1nc2ccc(S(=O)(=O)N(CC(C)C)C[C@@H](O)[C@H](Cc3ccccc3)NC(=O)O[C@H]3CO[C@H]4OCC[C@H]43)cc2s1 : 1.0
CC(C)CN(C[C@@H](O)[C@H](Cc1ccccc1)NC(=O)OC1COC2OCCC12)S(=O)(=O)c1ccc2nc(N)sc2c1 (stereo partly shown) : 1.0
CNc1nc2ccc(S(=O)(=O)N(CC(C)C)C[C@@H](O)[C@H](Cc3ccccc3)NC(=O)COc3c(C)cc(N)cc3C)cc2s1 : 1.0
Cc1ccccc1C(=O)N[C@@H](Cc1ccccc1)[C@H](O)CN(CC(C)C)S(=O)(=O)c1ccc2nc(N)sc2c1 : 0.0

Exercise: Item CC(C)CN(C[C@@H](O)[C@H](Cc1ccccc1)NC(=O)OC1COC2OCCC12)S(=O)(=O)c1ccc2nc(N(C)C)sc2c1 (stereo partly shown) : fold resistance Strain B beneath 2, strictly?
Solution: 0.0

Exercise: Next up: Cc1c(N)cccc1C(=O)N[C@@H](Cc1ccccc1)[C@H](O)CN(CC(C)C)S(=O)(=O)c1ccc2nc(N)sc2c1
Solution: 1.0

Exercise: Next up: CC(C)CN(C[C@@H](O)[C@H](Cc1ccccc1)NC(=O)O[C@H]1CCOC1)S(=O)(=O)c1ccc2nc(N)sc2c1
Solution: 1.0

Exercise: Next up: CC(C)CN(C[C@@H](O)[C@H](Cc1ccccc1)NC(=O)OCc1ccccc1)S(=O)(=O)c1ccc2nc(N)sc2c1
Solution: 0.0

Exercise: Next up: CNc1nc2ccc(S(=O)(=O)N(CC(C)C)C[C@@H](O)[C@H](Cc3ccccc3)NC(=O)COc3c(C)cc(CN)cc3C)cc2s1
Solution: 0.0

Exercise: Next up: CC(C)CN(C[C@@H](O)[C@H](Cc1ccccc1)NC(=O)OCc1cncs1)S(=O)(=O)c1ccc2nc(N)sc2c1
Solution: 1.0

Exercise: Next up: CC(C)CN(C[C@@H](O)[C@H](Cc1ccccc1)NC(=O)OC1CCOC1)S(=O)(=O)c1ccc2nc(N)sc2c1 (stereo partly shown)
Solution: 1.0
